These data points were gathered from ChEMBL document CHEMBL2384910.

Biological target: Renin (Macaca fascicularis)
Sequence (whole entry): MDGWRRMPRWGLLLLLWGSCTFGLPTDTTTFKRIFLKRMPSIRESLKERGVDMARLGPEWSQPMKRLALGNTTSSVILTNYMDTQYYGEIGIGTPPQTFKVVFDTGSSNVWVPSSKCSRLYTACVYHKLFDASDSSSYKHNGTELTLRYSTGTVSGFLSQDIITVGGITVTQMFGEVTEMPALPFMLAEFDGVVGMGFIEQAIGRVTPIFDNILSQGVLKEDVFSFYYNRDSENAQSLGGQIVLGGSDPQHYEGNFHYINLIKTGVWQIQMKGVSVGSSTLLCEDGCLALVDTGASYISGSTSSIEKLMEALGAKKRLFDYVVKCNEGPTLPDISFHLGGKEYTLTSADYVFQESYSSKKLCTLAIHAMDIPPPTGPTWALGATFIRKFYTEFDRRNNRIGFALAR
Assay: Ratio of compound IC50 to aliskiren IC50 for renin in cynomolgus monkey plasma
MEASUREMENT TYPE: Ratio IC50
// return just the number, without any unit appended

MOLECULAR STRING | Ratio IC50
C[C@H](C[C@H](O)[C@@H](N)CN1CC(=O)N(c2ccccc2Cl)CC1(C)C)C(=O)NCC(C)(C)C | 0.5
CC[C@H](C[C@H](O)[C@@H](N)CN1CC(=O)N(c2ccccc2Cl)CC1(C)C)C(=O)NCC(CC)(CC)CO.O=C(O)/C=C/C(=O)O | 0.8
CC(C)[C@H](C[C@H](O)[C@@H](N)CN1CC(=O)N(c2ccccc2Cl)CC1(C)C)C(=O)Nc1ccc(F)cc1F.O=C(O)/C=C/C(=O)O | 3
CC[C@H](C[C@H](O)[C@@H](N)CN1CC(=O)N(c2ccccc2Cl)CC1(C)C)C(=O)N[C@H]1C2CC3CC1C[C@](O)(C3)C2.O=C(O)/C=C/C(=O)O | 0.8

Input: Record request: Ratio IC50 value, item `CC[C@H](C[C@H](O)[C@@H](N)CN1CC(=O)N(c2ccccc2Cl)CC1(C)C)C(=O)N[C@H]1C2CC3CC1C[C@@](O)(C3)C2.O=C(O)/C=C/C(=O)O`
Output: 0.7

Input: And for `CC[C@H](C[C@H](O)[C@@H](N)CN1CC(=O)N(c2ccccc2Cl)CC1(C)C)C(=O)Nc1cc(OC)ccn1` ?
Output: 13

Input: And for `CC[C@H](C[C@H](O)[C@@H](N)CN1CC(=O)N(c2ccccc2Cl)CC1(C)C)C(=O)Nc1ccc(F)cc1.O=C(O)/C=C/C(=O)O` ?
Output: 0.9

Input: And for `CC(C)[C@H](C[C@H](O)[C@@H](N)CN1CC(=O)N(c2ccccc2Cl)CC1(C)C)C(=O)NCC(C)(C)C(N)=O.O=C(O)/C=C/C(=O)O` ?
Output: 1.2

Input: And for `CC[C@H](C[C@H](O)[C@@H](N)CN1CC(=O)N(c2cc(F)ccc2Cl)CC1(C)C)C(=O)N[C@H]1C2CC3CC1C[C@](O)(C3)C2.O=C(O)/C=C/C(=O)O` ?
Output: 0.7

Input: And for `Cc1ccc(F)cc1N1CC(C)(C)N(C[C@H](N)[C@@H](O)C[C@H](C(=O)NCC(C)(C)C(=O)O)C(C)C)CC1=O` ?
Output: 16

* * *

# Ratio IC50 values compiled below
Target: Renin (Macaca fascicularis)
Sequence (whole entry): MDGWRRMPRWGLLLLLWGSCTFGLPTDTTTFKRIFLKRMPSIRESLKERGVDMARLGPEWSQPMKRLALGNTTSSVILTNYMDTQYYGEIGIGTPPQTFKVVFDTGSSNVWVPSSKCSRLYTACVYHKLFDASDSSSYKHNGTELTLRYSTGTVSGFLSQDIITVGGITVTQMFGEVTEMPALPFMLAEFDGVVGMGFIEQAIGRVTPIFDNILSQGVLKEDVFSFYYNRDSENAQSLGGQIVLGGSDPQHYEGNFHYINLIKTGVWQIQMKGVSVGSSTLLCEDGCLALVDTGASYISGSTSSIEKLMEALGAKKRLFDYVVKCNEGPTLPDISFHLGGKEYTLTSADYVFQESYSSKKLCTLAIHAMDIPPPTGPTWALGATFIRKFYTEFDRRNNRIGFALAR
Assay: Ratio of compound IC50 to aliskiren IC50 for renin in cynomolgus monkey plasma
// return just the number, without any unit appended

Please review the entries below; each comes with its answer.
COMPOUND | Ratio IC50
CC[C@H](C[C@H](O)[C@@H](N)CN1CC(=O)N(c2ccccc2Cl)CC1(C)C)C(=O)Nc1ncccc1C.O=C(O)/C=C/C(=O)O | 2.9
COC(=O)C(C)(C)CNC(=O)[C@@H](C[C@H](O)[C@@H](N)CN1CC(=O)N(c2ccccc2Cl)CC1(C)C)C(C)C.O=C(O)/C=C/C(=O)O | 1.6
CC(C)NC(=O)[C@@H](C[C@H](O)[C@@H](N)CN1CC(=O)N(c2ccccc2Cl)CC1(C)C)C(C)C.O=C(O)/C=C/C(=O)O | 2.7

Input: Record request: Ratio IC50 value, item `CC(C)[C@H](C[C@H](O)[C@@H](N)CN1CC(=O)N(c2ccccc2Cl)CC1(C)C)C(=O)Nc1ccccn1.O=C(O)/C=C/C(=O)O`
Output: 0.7
